Biological target: Sialic acid-binding Ig-like lectin 9 (Homo sapiens) (UniProt Q9Y336)
Sequence (Q9Y336 whole entry): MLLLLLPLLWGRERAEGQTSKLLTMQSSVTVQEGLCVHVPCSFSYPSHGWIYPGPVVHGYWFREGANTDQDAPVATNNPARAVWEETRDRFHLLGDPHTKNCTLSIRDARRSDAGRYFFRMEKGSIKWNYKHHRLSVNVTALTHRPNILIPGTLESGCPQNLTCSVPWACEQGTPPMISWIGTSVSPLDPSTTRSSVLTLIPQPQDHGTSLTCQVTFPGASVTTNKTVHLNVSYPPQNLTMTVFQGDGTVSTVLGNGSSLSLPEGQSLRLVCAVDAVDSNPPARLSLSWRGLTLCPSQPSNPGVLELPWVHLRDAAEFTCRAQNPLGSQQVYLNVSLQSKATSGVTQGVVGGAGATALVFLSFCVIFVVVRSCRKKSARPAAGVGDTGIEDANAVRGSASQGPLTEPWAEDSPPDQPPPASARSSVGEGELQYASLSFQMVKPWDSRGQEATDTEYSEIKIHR
Assay: Hs-Siglec9 ALPHAscreen SOP 20170721
Set-up: scale not given: direction of the effect not stated beside the values
Conditions: 10 µM
Task for the reader: assign each of the following compounds its reported Percent Effect.
Numbers only, in %.

Example compounds with recorded Percent Effect:
{"compound": "CC(=O)NCCNC(=O)c1sc(-c2ccc(Cl)s2)nc1C", "observedProperty": "Percent Effect", "unitText": "%", "dataValue": -4.05}
{"compound": "Cc1ncsc1C(=O)NCCSCc1cccs1", "observedProperty": "Percent Effect", "unitText": "%", "dataValue": 13.7}
{"compound": "Cc1nccn1-c1cccc(C2CCCN(C3CCCCC3)C2)n1 (centres undefined)", "observedProperty": "Percent Effect", "unitText": "%", "dataValue": -0.877}
{"compound": "CNC(=O)[C@@]12CCO[C@@H]1CCN(Cc1scnc1C)C2", "observedProperty": "Percent Effect", "unitText": "%", "dataValue": -13.5}
{"compound": "CC(C)(N)CN1CCC(c2nnc(CN3CCCC3)n2C2CC2)CC1", "observedProperty": "Percent Effect", "unitText": "%", "dataValue": 2.76}

Return reported Percent Effect values for all items listed beneath this line.
1. CCc1nc(CN2CCCC(NCc3ccc(C(N)=O)cc3)C2)no1 (centres undefined)
2. CN(C(=O)C1CSCN1S(=O)(=O)c1ccc(F)cc1)C1CC1 (centres undefined)
3. O=C1CO[C@@H]2CN(CC3CCOCC3)C[C@H]2N1CC1CC1

Solution:
9.52
1.18
-0.714

Please give Percent Effect for each item listed below.
1. COc1ccc(Nc2nc3c(C)nn(C)c3c(=O)n2C)c(OC)c1
2. CCN(CC)S(=O)(=O)N1CCCC(c2cccc(C(=O)O)c2)C1 (centres undefined)
3. CC(C)NC(=O)Nc1ccc(CS(=O)(=O)C(C)(C)C)cc1
4. O=C(NCCCn1ccnc1)N1CCN(c2cccs2)CC1

Solution:
1. 14.5
2. 19.8
3. 5.76
4. 7.23

Batch of 4 compounds: report Percent Effect for each.
1. Cc1nc(C)n(CC2CN(CCCOc3ccccc3C)CCO2)n1 (centres undefined)
2. c1cc2n(n1)CC(CNCc1ccc(OC3CCCCC3)nc1)CN2 (centres undefined)
3. COc1ccc2c(c1)CN(Cc1nc3ccsc3c(=O)[nH]1)CC2
4. O=C1NC2(CCN(C(=O)c3ccccc3)CC2)CC1c1cccnc1 (centres undefined)

Solution:
[-2.65, 5.86, 14.2, 5.92]

Take each entry in turn and give its Percent Effect.
1. CC(=O)Nc1nc(C(=O)Nc2ccc(F)cc2)cs1
2. Cc1ccc(-c2nnc(CNCCn3cc(C)cn3)o2)cc1
3. COCc1nc2cc(NCc3ccncc3)ccc2o1
4. CN(Cc1ccon1)C(=O)C1CC(=O)N(Cc2ccncc2)C1 (centres undefined)
5. CS(=O)(=O)N1CCC(NC(=O)COc2ccc(Cl)c(Cl)c2)CC1

Solution:
1. -6.42
2. 7.81
3. -0.763
4. 13.8
5. -0.737
